Recorded apparent Kd, one value per entry.
test system: MS2 coat protein; assay: apparent Kd, MS2 coat protein; higher = weaker binding; RNA-MaP array; details: designed as: ON switch for flavin mononucleotide; no ligand

[
  {
    "SEQUENCE": "ACUAGUAGGCAAGGAUAUGGCCUCAUAAGAUAGCCAGAAGGUGCUACGGACAUGAGGAUCACCCAUGUGCAGCUCGUACGGUGG",
    "apparent Kd [nM]": 367
  },
  {
    "SEQUENCE": "UCACAGUCCCAGAAGGCCUUGUCAGAUUCAUAAGGAGGAUAUGGAUUACAUGAGGAUCACCCAUGUGAAUACUUACAGAGCAAC",
    "apparent Kd [nM]": 79.3
  },
  {
    "SEQUENCE": "ACACCACAGCAGAAGGGUACAUUCUCCACGCGUACAGGAUAUGCGGACUCGGCGUCUCUGACAUGAGGAUCACCCAUGUUUUCU",
    "apparent Kd [nM]": 85.9
  },
  {
    "SEQUENCE": "CCGCCACUACAUGAGGAUCACCCAUGUGAACCGUAGAACAUGAGAAGGUGCCUAAAGCUCGAGGGCAAGGAUAUCAACCGCCGC",
    "apparent Kd [nM]": 125
  }
]
